Task for the reader: assign each of the following compounds its reported activity change, negative = inhibition.
Target: Luciferin 4-monooxygenase (Photinus pyralis)
Test: qHTS assay to identify small molecule inhibitors of firefly luciferase (AID 1224835); note: % is set by controls: 0 for no effect and ±100 for the full control effect; nearly all actives have a fitted effect of over 25% in size
Details: purified P. pyralis luciferase, luminescence inhibition; series mostly up to 115 µM
Inconclusive results are not listed. Activity calls are given as the source filed them. Calls come from the whole dose curve; as a rule, active = well fitted inhibition curve with a large enough effect in the repeat runs; inconclusive = weak or mixed curves; inactive = flat fitted curve, though single readings scatter.

CCC(=O)CC(C)CC (centres undefined) = 4.97% [at 0.435 µM] (inactive)
C=C/C=C/C=C/CCCCC = 0.374% [at 23.6 µM] (inactive)
COc1cc(C(C)C)c2c(c1)S(=O)(=O)N(COc1cc(=O)n3cccc(OCCN4CCCCC4)c3n1)C2=O = -3.11% [at 23.6 µM] (inactive)

Any idea what its activity change, negative = inhibition is? The compound is C=CC(=C)CC/C=C(\C)CCC=C(C)C 0.425% [at 23.6 µM] (inactive)
